GI50 of drug values, listed per item
# Tested on: A498
# assayExplanation: GI50 of drug in presence of dasatinib; higher = less potent
# appliedConditions: treatment: drug + dasatinib (fixed dose, not stated); 5 days
measuredEndpoint: GI50 of drug

- CC1CCN(C(=O)CC#N)C[C@@H]1N(C)c1ncnc2[nH]ccc12.O=C(O)CC(O)(CC(=O)O)C(=O)O (stereo in doubt) + Cc1nc(Nc2ncc(C(=O)Nc3c(C)cccc3Cl)s2)cc(N2CCN(CCO)CC2)n1 [dasatinib]: > 10 µM
- COC[C@H]1OC(=O)c2coc3c2[C@@]1(C)C1=C(C3=O)[C@@H]2CCC(=O)[C@@]2(C)C[C@@H]1OC(C)=O [Wortmannin] + Cc1nc(Nc2ncc(C(=O)Nc3c(C)cccc3Cl)s2)cc(N2CCN(CCO)CC2)n1 [dasatinib]: 0.0848 µM
- CC1(C)CNc2cc(NC(=O)c3cccnc3NCc3ccncc3)ccc21.O=P(O)(O)O.O=P(O)(O)O [Motesanib Diphosphate] + Cc1nc(Nc2ncc(C(=O)Nc3c(C)cccc3Cl)s2)cc(N2CCN(CCO)CC2)n1 [dasatinib]: > 10 µM
- CCCCCCCCCCCCc1ccc(S(=O)(=O)Nc2nncs2)cc1 [PHT-427] + Cc1nc(Nc2ncc(C(=O)Nc3c(C)cccc3Cl)s2)cc(N2CCN(CCO)CC2)n1 [dasatinib]: > 10 µM
- C#Cc1cccc(Nc2ncnc3cc(OCCOC)c(OCCO)cc23)c1.Cl [OSI-420 (Desmethyl Erlotinib)] + Cc1nc(Nc2ncc(C(=O)Nc3c(C)cccc3Cl)s2)cc(N2CCN(CCO)CC2)n1 [dasatinib]: > 10 µM
- Cn1cc(-c2ccc3nnc(C(F)(F)c4ccc5ncccc5c4)n3n2)cn1 + Cc1nc(Nc2ncc(C(=O)Nc3c(C)cccc3Cl)s2)cc(N2CCN(CCO)CC2)n1 [dasatinib]: > 10 µM
- Cc1cccc(-c2nc(C(C)(C)C)[nH]c2-c2ccc3nccnc3c2)n1 + Cc1nc(Nc2ncc(C(=O)Nc3c(C)cccc3Cl)s2)cc(N2CCN(CCO)CC2)n1 [dasatinib]: 8.41 µM
- COc1cc2ncnc(Nc3cccc(Cl)c3)c2cc1OC [AG-1478 (Tyrphostin AG-1478)] + Cc1nc(Nc2ncc(C(=O)Nc3c(C)cccc3Cl)s2)cc(N2CCN(CCO)CC2)n1 [dasatinib]: > 10 µM
- c1ccc2c(CCNc3ccc(Nc4ccncc4)cc3)c[nH]c2c1 + Cc1nc(Nc2ncc(C(=O)Nc3c(C)cccc3Cl)s2)cc(N2CCN(CCO)CC2)n1 [dasatinib]: 0.748 µM

====

# Test system: ACHN
# assayExplanation: minimum viability across doses, drug alone, relative to DMSO (fraction); higher = less growth inhibition
# appliedConditions: treatment: drug alone; 5 days
Field 'label' (enum: 1.0 / 0.0). Set to 1.0 when minimum viability across doses is strictly under 0.1; else 0.0.

- CC(C)(C)c1cc(NC(=O)Nc2ccc(-c3cn4c(n3)sc3cc(OCCN5CCOCC5)ccc34)cc2)no1 [Quizartinib (AC220)]: 0.0
- NC(=O)c1ccc(-c2nc(-c3ccc4c(c3)OCO4)c(-c3ccccn3)[nH]2)cc1: 0.0
- CCS(=O)(=O)N1CC(CC#N)(n2cc(-c3ncnc4[nH]ccc34)cn2)C1: 0.0
- CCn1c(-c2nonc2N)nc2c(C#CC(C)(C)O)ncc(OC[C@H]3CCCNC3)c21: 0.0
- Cc1ncc(-c2ccnc(Nc3ccc(S(C)(=O)=O)cc3)n2)n1C(C)C [AZD5438]: 1.0
- CCN(CCO)CCCOc1ccc2c(Nc3cc(CC(=O)Nc4cccc(F)c4)n[nH]3)ncnc2c1 [Barasertib (AZD1152-HQPA)]: 0.0
- COc1ccc2c(OCc3nnc4ccc(-c5ccccc5)nn34)ccnc2c1 [AMG-208]: 0.0
- Nc1ncnc2c1c(-c1cnc3[nH]ccc3c1)nn2C1CCCC1 [PP-121]: 1.0
- CN1CCN(c2nc(C3=C(c4c[nH]c5ccccc45)C(=O)NC3=O)c3ccccc3n2)CC1 [Sotrastaurin (AEB071)]: 0.0
- C#Cc1cccc(Nc2ncnc3cc(OCCOC)c(OCCOC)cc23)c1.Cl [Erlotinib HCl]: 0.0
- Cn1cnc2c(F)c(Nc3ccc(Br)cc3Cl)c(C(=O)NOCCO)cc21 [AZD6244 (Selumetinib)]: 0.0
- O=C1NC(=O)[C@@H](c2cn3c4c(cccc24)CCC3)[C@@H]1c1c[nH]c2ccccc12 [ARQ 197 (Tivantinib)]: 0.0
- Cl.N=C(N)NC(=N)NCCc1ccccc1 [Phenformin hydrochloride]: 0.0
- COC(=O)Nc1ccc(-c2nc(N3CCOCC3)c3cnn(C4CCN(Cc5cccnc5)CC4)c3n2)cc1 [WYE-687]: 1.0
- Cl.Cl.Fc1cc(-c2cccc3ncc(-c4cnn(C5CCNCC5)c4)nc23)cc(F)c1CN1CCOCC1 [NVP-BSK805]: 1.0
